- Tested System: eEF2K (Homo sapiens)
- Construct: in the immortalized epithelial breast cell lines, MCF10A; host or cells: MCF10A immortalized breast epithelial cells
- Assay Method Text: EF2K cell-based assay (P-EF2 AlphaLISA, 2-deoxyglucose stimulated MCF10A cells)
- Experimental Setup: 2.5 mM 2-deoxyglucose 4 h, phosphorylation of EF2 at Thr 56, pIC50 = -log IC50 (M)
Measured eEF2K_C_PThr56 pIC50 accompanies every entry in the list below.

# example entries with known answers
Compound	Tested System	Result
O=C1CN2CC3CCC2CN3Cc2cccc(c2)Nc2cc(ccn2)-c2cnc(nc2)NCCCN1 (single isomer, unassigned)	eEF2K (Homo sapiens)	<5
NCCCOCC1CN2CCN1Cc1cccc(c1)Nc1cc(ccn1)-c1cnc(nc1)NCCCNC(=O)C2 (stereo not shown)	eEF2K (Homo sapiens)	<5
O=C1CN2CCN(CC2)Cc2cccc(c2)Nc2cc(ccn2)-c2cnc(nc2)NC(C(=O)O)CCN1 (stereo not shown) [Compound 117]	eEF2K (Homo sapiens)	<4.52

Below: the item to evaluate.
Name the recorded eEF2K_C_PThr56 pIC50 of the compound listed here: O=C1CN2CCN(CC2)Cc2cccc(c2)Nc2cc(ccn2)-c2cnc(nc2)NC(C(=O)O)CCN1 (stereo not shown) [Compound 119]
<4.52

----------
- Tested System: EF2K (Homo sapiens, UniProt O00418)
- Construct: host or cells: LN-229 glioblastoma cell lysate
- Sequence (O00418 1-725): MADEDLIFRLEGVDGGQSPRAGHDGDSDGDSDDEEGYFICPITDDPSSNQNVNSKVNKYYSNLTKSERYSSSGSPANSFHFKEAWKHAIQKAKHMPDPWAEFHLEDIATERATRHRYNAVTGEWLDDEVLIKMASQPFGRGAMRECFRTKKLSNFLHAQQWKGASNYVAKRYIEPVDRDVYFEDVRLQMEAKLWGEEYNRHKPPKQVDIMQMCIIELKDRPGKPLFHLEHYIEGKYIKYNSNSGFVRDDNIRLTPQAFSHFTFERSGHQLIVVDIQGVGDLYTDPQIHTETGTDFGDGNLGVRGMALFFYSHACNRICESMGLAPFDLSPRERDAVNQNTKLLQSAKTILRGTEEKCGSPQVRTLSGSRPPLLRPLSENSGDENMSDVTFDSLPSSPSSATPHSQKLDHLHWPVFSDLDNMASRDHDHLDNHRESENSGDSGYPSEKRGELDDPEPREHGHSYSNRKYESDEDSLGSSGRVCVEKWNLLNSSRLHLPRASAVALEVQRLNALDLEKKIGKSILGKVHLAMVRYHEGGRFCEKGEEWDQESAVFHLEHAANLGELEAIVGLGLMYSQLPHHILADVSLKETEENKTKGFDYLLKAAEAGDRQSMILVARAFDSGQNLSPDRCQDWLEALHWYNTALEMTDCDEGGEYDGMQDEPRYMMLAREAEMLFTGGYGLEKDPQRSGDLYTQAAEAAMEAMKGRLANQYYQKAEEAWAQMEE
- Assay Method Text: Biochemical EF2K lysate-based kinase assay (AlphaLISA p-eEF2 Thr56)
- Experimental Setup: LN-229 cell lysates, 10 mM ATP, pH 6.6; pIC50 = -log IC50 (M); read-out: eEF2K_C_alphalisa pIC50 (converted)
- Description: LN-229 cells were purchased from ATCC (CRL-2611); these are glioblastoma cells. Cell lysates from LN229 were used in this kinase assay to provide both the kinase and the substrate (EF2). The AlphaLISA p-eEF2 (Thr56) detection assay was developed using a sandwich assay format with two specific antibodies recognizing different epitopes of the target, including one antibody against the phosphorylation site of interest. […]
Readout Name: IC50 (M)
Form entry: value (M) — number only.

# example entries with known answers
Compound	IC50 / M
CC1CN2CCN1Cc1cccc(c1)Nc1cc(ccn1)-c1cnc(nc1)N1CCCC1CCNC(=O)C2 (centres unmarked) [Compound 47]	8.51e-09
CC1c2cccc(c2F)Nc2cc(ccn2)-c2cnc(nc2)NCCCNC(=O)C2(CC2)N2CCN1CC2 (single isomer, unassigned) [Compound 11]	2.75e-09
CNC(=O)C1CCNC(=O)CN2CCN(CC2)Cc2cccc(c2)Nc2cc(ccn2)-c2cnc(nc2)N1 (centres unmarked) [Compound 122]	1.91e-05
COCC1C(=O)NCCCNc2ncc(cn2)-c2ccnc(c2)Nc2cccc(c2)CN2CCN1CC2 (single isomer, unassigned) [Compound 6]	4.47e-08
O=C1NCCC2CC(O)CN2c2ncc(cn2)-c2ccnc(c2)Nc2cccc(c2)CN2CCN(CC2)C12COC2 (centres unmarked) [Compound 63]	1.95e-08

Name the recorded IC50 of the compound listed here: NC(=O)C1CCNC(=O)CN2CCN(CC2)Cc2cccc(c2)Nc2cc(ccn2)-c2cnc(nc2)N1 (centres unmarked) [Compound 121]
5.13e-06

Name the recorded IC50 of the compound listed here: CC1CN2CCN1Cc1cccc(c1)Nc1cc(ccn1)-c1cnc(nc1)N1CC(O)CC1CCNC(=O)C2 (centres unmarked) [Compound 60]
6.61e-08

Name the recorded IC50 of the compound listed here: O=C1NCCC2CC(O)CN2c2ncc(cn2)-c2ccnc(c2)Nc2cccc(c2F)OC2CCN(CC2)C12CC2 (centres unmarked) [Compound 96]
3.98e-09

Name the recorded IC50 of the compound listed here: O=C1NCCCNc2ncc(cn2)-c2ccnc(c2)Nc2cccc(c2)OC2CCN(CC2)C12CC2 [Compound 95]
6.76e-09

Name the recorded IC50 of the compound listed here: O=C1NCCCNc2ncc(cn2)-c2ccnc(c2)Nc2cccc(c2)NC2CCN(CC2)C12CC2 [Compound 100]
6.17e-08

Name the recorded IC50 of the compound listed here: COC(=O)C1CCNC(=O)CN2CCN(CC2)Cc2cccc(c2)Nc2cc(ccn2)-c2cnc(nc2)N1 (single isomer, unassigned) [Compound 118]
3.09e-07

Name the recorded IC50 of the compound listed here: CC1(C)CN2CCN1Cc1cccc(c1)Nc1cc(ccn1)-c1cnc(nc1)NCCCNC(=O)C2 [Compound 19]
3.39e-08

Source listed as patent US20170022201A1.
